# target.desc: alanine racemase enzyme from S. aureus (Staphylococcus aureus, UniProt P63479)
# Sequence (P63479 whole entry): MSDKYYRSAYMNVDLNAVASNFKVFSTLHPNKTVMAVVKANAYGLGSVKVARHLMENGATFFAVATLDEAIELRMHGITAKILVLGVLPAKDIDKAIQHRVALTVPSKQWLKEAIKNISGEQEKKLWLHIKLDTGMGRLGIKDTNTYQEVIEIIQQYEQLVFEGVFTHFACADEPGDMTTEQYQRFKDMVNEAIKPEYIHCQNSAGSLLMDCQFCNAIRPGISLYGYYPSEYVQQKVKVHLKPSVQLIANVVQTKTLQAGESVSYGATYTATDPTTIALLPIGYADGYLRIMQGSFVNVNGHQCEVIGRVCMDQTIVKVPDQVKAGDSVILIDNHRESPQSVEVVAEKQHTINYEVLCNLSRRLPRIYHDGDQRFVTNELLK
# test.name: biochemical
# conditions.used: Ki
Structures can show the parent of a compound that is named as a salt.
reported.metric: Ki (µM)
# output: bare number, implied unit µM

## Task # return Ki for C[C@@H](N)C(=O)NO [Hcl•H2NCH(CH3)C(O)NHOH, D-Alanine Hydroxamic Acid Hydrochloride] , test system: alanine racemase enzyme from S. aureus (Staphylococcus aureus, UniProt P63479)
## Result 2680

## Task Enter measured Ki, system alanine racemase enzyme from S. aureus (Staphylococcus aureus, UniProt P63479), for the compound shown: Cl.NCCC(=O)NO [HCl•H2NCH2CH2C(O)NHOH, β-Alanine Hydroxamic Acid Hydrochloride]
## Result 401

## Task Retrieve Ki on alanine racemase enzyme from S. aureus (Staphylococcus aureus, UniProt P63479); query C[C@H](N)C(=O)NO.Cl [HCl•H2NCH(CH3)C(O)NHOH*, L-Alanine Hydroxamic Acid Hydrochloride]
## Result 1300

## Task // fetch Ki; item: Cl.NCC(=O)NO [HCl•H2NCH2C(O)NHOH, Glycine Hydroxamic Acid Hydrochloride] ; system: alanine racemase enzyme from S. aureus (Staphylococcus aureus, UniProt P63479)
## Result 217

* * *

# target.desc: alanine racemase enzyme from P. aeruginosa (Pseudomonas aeruginosa, UniProt Q9HTQ2, A178S/N326M/S138R/S262R)
# Sequence (Q9HTQ2 whole entry S138R/A178S/S262R/N326M): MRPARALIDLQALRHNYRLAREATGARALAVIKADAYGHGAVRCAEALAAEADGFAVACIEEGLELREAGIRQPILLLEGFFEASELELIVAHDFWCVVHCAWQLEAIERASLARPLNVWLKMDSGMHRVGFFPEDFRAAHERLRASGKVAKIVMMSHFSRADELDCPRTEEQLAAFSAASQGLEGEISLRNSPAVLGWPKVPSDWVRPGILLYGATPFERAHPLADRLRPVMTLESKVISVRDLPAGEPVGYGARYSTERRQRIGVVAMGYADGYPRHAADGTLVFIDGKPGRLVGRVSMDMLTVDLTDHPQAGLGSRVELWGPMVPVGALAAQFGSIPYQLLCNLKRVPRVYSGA
# test.name: biochemical
# conditions.used: Ki
Counter-ions that a name gives are not always drawn.
reported.metric: Ki (µM)
Only the number, expressed in µM, is required.

## Task Answer with reported Ki of Cl.NCCC(=O)NO [HCl•H2NCH2CH2C(O)NHOH, β-Alanine Hydroxamic Acid Hydrochloride]
## Result 894

## Task Name the recorded Ki of the item C[C@H](N)C(=O)NO.Cl [HCl•H2NCH(CH3)C(O)NHOH*, L-Alanine Hydroxamic Acid Hydrochloride] in your answer.
## Result 1060

## Task Give Ki for C[C@@H](N)C(=O)NO [Hcl•H2NCH(CH3)C(O)NHOH, D-Alanine Hydroxamic Acid Hydrochloride]
## Result 1010
